Each record here notes measured Plant response rating, Foxtail, Green.
System: green foxtail (Setaria viridis)
Method Notes: Test C pre-/postemergence plant response
Format: in vivo
Test Settings: Preemergence, 8 g ai/ha; scale 0 to 100 (0 no effect, 100 complete control)

Record Smiles | Plant response rating, Foxtail, Green
CCc1cc(-c2ccc(F)cc2)nn1-c1c(O)cnn(C)c1=O | 15
Cc1cc(-c2ccc(Cl)cc2)nn1-c1c(OC(=O)OCC(C)C)cnn(C)c1=O | 40
CCc1c(C)c(-c2ccc(Cl)cc2)nn1-c1c(O)cnn(C)c1=O | 0
COC(=O)Oc1cnn(C)c(=O)c1-n1nc(-c2ccc(Cl)cc2)cc1C | 15

* * *

Tested on: corn (Zea mays)
Method Notes: Test B pre-/postemergence plant response
Type: in vivo
Test Settings: Postemergence, 16 g ai/ha; scale 0 to 100
Reported Plant response rating, Corn values follow for various molecules
Measured Metric: Plant response rating, Corn

Record Smiles | Result
CCc1cc(-c2ccc(F)cc2)nn1-c1c(O)cnn(C)c1=O | 50
Cc1cc(-c2ccc(Cl)cc2)nn1-c1c(OC(=O)c2ccccc2)cnn(C)c1=O | 95
CCc1cc(-c2ccc(C(F)(F)F)cc2)nn1-c1c(OS(C)(=O)=O)cnn(C)c1=O | 0
CCc1cc(-c2ccc(Cl)cc2)nn1-c1c(OC(=O)OC(C)C)cnn(C)c1=O | 85
COCc1cc(-c2ccc(Br)cc2)nn1-c1c(O)cnn(C)c1=O | 0
CCc1cc(-c2ccc(Cl)c(Cl)c2)nn1-c1c(O)cnn(C)c1=O | 90
Cc1cc(-c2ccc(Cl)cc2)nn1-c1c(OC(=O)OCC(C)C)cnn(C)c1=O | 0
COC(=O)Oc1cnn(C)c(=O)c1-n1nc(-c2ccc(Cl)cc2)cc1C | 95

* * *

System: johnsongrass (Sorghum halepense)
Method Notes: Test B pre-/postemergence plant response
Format: in vivo
Test Settings: Preemergence; 8 g ai/ha; scale 0 to 100
# Johnsongrass plant response rating annotations

Record Smiles | Experimental Target | Johnsongrass plant response rating
CCc1cc(-c2ccc(Cl)cc2)nn1-c1c(OS(C)(=O)=O)cnn(C)c1=O | johnsongrass (Sorghum halepense) | 75
Cn1ncc(O)c(-c2nn(-c3ccc(Cl)cc3)cc2Br)c1=O | johnsongrass (Sorghum halepense) | 55
Cc1nn(C)c(=O)c(-n2nc(-c3ccc(C(F)(F)F)cc3)cc2C)c1O | johnsongrass (Sorghum halepense) | 0
Cc1cc(-c2ccc(Cl)cc2)nn1-c1c(OC(=S)N(C)C)cnn(C)c1=O | johnsongrass (Sorghum halepense) | 0
CCc1cc(-c2ccc(Cl)c(Cl)c2)nn1-c1c(O)cnn(C)c1=O | johnsongrass (Sorghum halepense) | 0
Cc1cc(-c2ccc(Cl)cc2)nn1-c1c(OC(=O)c2ccccc2)cnn(C)c1=O | johnsongrass (Sorghum halepense) | 40
Cc1cn(-c2ccc(Cl)cc2)nc1-c1c(O)cnn(C)c1=O | johnsongrass (Sorghum halepense) | 0

* * *

System: giant foxtail (Setaria faberi)
Method Notes: Test A pre-/postemergence plant response
Assay type: in vivo
Test Settings: Postemergence, 31 g ai/ha; 0 to 100 scale (0 no effect, 100 complete control)
// assign Satisfied if Plant response rating, Foxtail, Giant falls strictly below 40, else Not satisfied (ties count as Not satisfied)

Record Smiles | Label
Cn1ncc(O)c(-c2nn(-c3ccc(C(F)(F)F)cn3)cc2Br)c1=O | Satisfied
COCc1cc(-c2ccc(Br)cc2)nn1-c1c(O)cnn(C)c1=O | Not satisfied
CCc1cc(-c2ccc(Cl)s2)nn1-c1c(O)cnn(C)c1=O | Satisfied
Cc1cc(-c2ccc(Cl)cc2)nn1-c1c(OC(=S)N(C)C)cnn(C)c1=O | Not satisfied
COC(=O)Oc1cnn(C)c(=O)c1-n1nc(-c2ccc(Cl)cc2)cc1C | Not satisfied

* * *

Test system: Italian ryegrass (Lolium multiflorum)
Method Notes: Test E pre-/postemergence plant response
Assay type: in vivo
Test Settings: 16 g ai/ha, Preemergence, scale 0 to 100

Record Smiles | Plant response rating, Ryegrass, Italian
COC(=O)Oc1cnn(C)c(=O)c1-n1nc(-c2ccc(Cl)cc2)cc1C | 98
CCc1cc(-c2ccc(Cl)cc2)nn1-c1c(OS(C)(=O)=O)cnn(C)c1=O | 100
Cn1ncc(O)c(-c2nn(-c3ccc(Cl)cc3)cc2Br)c1=O | 65
CCc1cc(-c2ccc(C(F)(F)F)cc2)nn1-c1c(O)cnn(C)c1=O | 80

* * *

System: Italian ryegrass (Lolium multiflorum)
Method Notes: Test E pre-/postemergence plant response
Format: in vivo
Test Settings: Postemergence, 31 g ai/ha, scale 0 to 100
Documented Plant response rating, Ryegrass, Italian across a set of molecules

Molecule | Plant response rating, Ryegrass, Italian
COC(=O)Oc1cnn(C)c(=O)c1-n1nc(-c2ccc(Cl)cc2)cc1C [Compound 33] | 90
CCc1cc(-c2ccc(C(F)(F)F)cc2)nn1-c1c(OS(C)(=O)=O)cnn(C)c1=O [Compound 19] | 100
CCc1cc(-c2ccc(C(F)(F)F)cc2)nn1-c1c(O)cnn(C)c1=O [Compound 11] | 95
Cn1ncc(O)c(-c2nn(-c3ccc(Cl)cc3)cc2Br)c1=O [Compound 31] | 50

* * *

Attribute: Plant response rating, Bromegrass, Downy
System: downy bromegrass (Bromus tectorum)
Method Notes: Test C pre-/postemergence plant response
Assay type: in vivo
Test Settings: Preemergence, 16 g ai/ha; scale 0 to 100 (0 no effect, 100 complete control)
Measured Metric: Plant response rating, Bromegrass, Downy

Molecule | Result Number
CCc1cc(-c2ccc(C(F)(F)F)cc2)nn1-c1c(O)cnn(C)c1=O [Compound 11] | 65
CCc1cc(-c2ccc(C(F)(F)F)cc2)nn1-c1c(OS(C)(=O)=O)cnn(C)c1=O [Compound 19] | 65
COC(=O)Oc1cnn(C)c(=O)c1-n1nc(-c2ccc(Cl)cc2)cc1C [Compound 33] | 35
Cc1cc(-c2ccc(Cl)cc2)nn1-c1c(OC(=O)C(C)C)cnn(C)c1=O [Compound 34] | 0

* * *

This listing pairs compounds with measured Plant response rating, Johnsongrass.
Test system: johnsongrass (Sorghum halepense)
Method Notes: Test B pre-/postemergence plant response
Format: in vivo
Test Settings: Postemergence, 31 g ai/ha, scale 0 to 100
Source text: […] Plant species in the flooded paddy test consisted of rice (Oryza sativa), umbrella sedge (Cyperus difformis), ducksalad (Heteranthera limosa) and barnyardgrass (Echinochloa crus-galli) grown to the 2-leaf stage for testing. […] Treated plants and controls were maintained in a greenhouse for 13 to 15 days, after which time all species were compared to controls and visually evaluated. […]

Record Smiles | Plant response rating, Johnsongrass
COCc1cc(-c2ccc(Br)cc2)nn1-c1c(O)cnn(C)c1=O | 0
Cc1cc(-c2ccc(Cl)cc2)nn1-c1c(OC(=S)N(C)C)cnn(C)c1=O | 70
CCc1cc(-c2ccc(Br)cc2)nn1-c1c(O)cnn(C)c1=O | 100
Cc1cc(-c2ccc(Cl)cc2)nn1-c1c(OC(=O)OCC(C)C)cnn(C)c1=O | 90

* * *

The entries below come with measured Plant response rating, Bermudagrass values attached.
System: bermudagrass (Cynodon dactylon)
Method Notes: Test E pre-/postemergence plant response
Format: in vivo
Test Settings: Postemergence, 16 g ai/ha; scale 0 to 100

Compound | Plant response rating, Bermudagrass
Cn1ncc(O)c(-c2nn(-c3ccc(Cl)cc3)cc2Br)c1=O [Compound 31] | 75
COC(=O)Oc1cnn(C)c(=O)c1-n1nc(-c2ccc(Cl)cc2)cc1C [Compound 33] | 80
Cc1cc(-c2ccc(Cl)cc2)nn1-c1c(OC(=O)C(C)C)cnn(C)c1=O [Compound 34] | 50
CCc1cc(-c2ccc(Cl)cc2)nn1-c1c(OC(=O)C(C)(C)C)cnn(C)c1=O [Compound 40] | 50
CCc1cc(-c2ccc(C(F)(F)F)cc2)nn1-c1c(OS(C)(=O)=O)cnn(C)c1=O [Compound 19] | 35

* * *

Tested on: annual bluegrass (Poa annua)
Method Notes: Test E pre-/postemergence plant response
Assay type: in vivo
Test Settings: 16 g ai/ha, Preemergence, scale 0 to 100
Description: […] Treated plants and controls were maintained in a greenhouse for 14 to 21 days, after which time all species were compared to controls and visually evaluated. […]
Measured Metric: Plant response rating, Bluegrass

Record Smiles | Result Number
Cc1cc(-c2ccc(Cl)cc2)nn1-c1c(OS(C)(=O)=O)cnn(C)c1=O | 0
CCc1cc(-c2ccc(Cl)cc2)nn1-c1c(OC(=O)C(C)(C)C)cnn(C)c1=O | 90
Cn1ncc(O)c(-c2nn(-c3ccc(Cl)cc3)cc2Br)c1=O | 0
COC(=O)Oc1cnn(C)c(=O)c1-n1nc(-c2ccc(Cl)cc2)cc1C | 0

* * *

System: large crabgrass (Digitaria sanguinalis)
Method Notes: Test B pre-/postemergence plant response
Assay type: in vivo
Test Settings: Preemergence, 31 g ai/ha; 0 to 100 scale, 0 no effect, 100 complete control

Compound | Plant response rating, Crabgrass, Large
Cc1cc(-c2ccc(Cl)cc2)nn1-c1c(OC(=O)c2ccccc2)cnn(C)c1=O [Compound 48] | 0
CCc1cc(-c2ccc(Cl)cc2)nn1-c1c(OC(=O)OC(C)C)cnn(C)c1=O [Compound 41] | 0
Cn1ncc(O)c(-c2nn(-c3ccc(Cl)cc3)cc2Cl)c1=O [Compound 28] | 100
CCc1cc(-c2ccc(Cl)c(Cl)c2)nn1-c1c(O)cnn(C)c1=O [Compound 20] | 50
CCc1cc(-c2ccc(F)cc2)nn1-c1c(O)cnn(C)c1=O [Compound 25] | 60
Cc1cc(-c2ccc(Cl)cc2)nn1-c1c(OS(=O)(=O)c2ccccc2[N+](=O)[O-])cnn(C)c1=O [Compound 51] | 75
CCc1cc(-c2ccc(C(F)(F)F)cc2)nn1-c1c(OS(C)(=O)=O)cnn(C)c1=O [Compound 19] | 100
